- protocol_description: soluble on expression in E. coli; label from the status in PepcDB or PDB records

>  <residue_codes>
MLSKPMELLRPSKGMINVHPIQRGGILTEEARKVLLEWGDGYSMCDICLEGRVDLLDKPPVKRFKEEVAEFLGMDEVRFTAGARHAKFVAMSGFKGALVVDSLAHYTTYIAAELNGLRVYEVPNTGYPEFRIEAESYTDVFEKVKEETGDYPAVALLTHADYKYGNLADAKKVAEICRDYGIPLILNTAYTSGIMEVSGRETGCDFIVASGHKSWAATAPIGILATTFEFAERVFRVSEVRGNWSGRAFTKKEVALFGCSPVYGLPLVTLMASFPVVKERVKRWKEEVEKARWFVEEMEKIEGVMLLGERPKNHTLMNFETPSFNLIAKKHRRKGYFLYHELKERGIFGVQPGMTRNVKLNVYGLSWEEVERVAEAFKEIAEKYGLEVED

>  <soluble on expression in E. coli>
not soluble

$$$$
>  <residue_codes>
MGSDKIHHHHHHMGASAISQQISKLEQELSIRLLQRNAFGVTPTPAGLAFLKHSQLILRQVNFAIDAAHSARLSGHVSLGFPPTITALIGIPLMKLMSERYPDIRLEIVETLSGNLIQSINSRQLDIAIIFTNEIDKQWSIQPLVREQMYLMARKEVLEKYGLSECIKSGIIQSQQIGDIPLVLPRQRHSLRKLLEHKIGQLNVVYEIDGLHLLMDSLIHLDLASVRPGSACLQEYKHKLQLLKVVDPEVERINYLVSLAEEELSPAALAAKSAIKACVKELIQNQIWPCSEIIL

>  <soluble on expression in E. coli>
not soluble

$$$$

###

- protocol_description: soluble on expression in E. coli; label from the status in PepcDB or PDB records
measured_quantity: soluble on expression in E. coli

>  <residue_codes>
MKLYIGNKNYSSWSLRAWLMVKKSGIKFDEILLQLDTDSFYQQLQSISPTLKVPTLVDGDITVWDSLSICEYINDSYLSGTAWPQDPKQKAKARSLACEMHSGFNALRNALPMNIRARRYVELSPAVQQDIARVDSIWSQQMAEFAPCQTQGTWLFGQWSIADMMFAPVVMRFFTYEIEVSQASRAYMEYIMSQPQMQAWITAAKAETEIVEADEAGVDR

>  <result>
not soluble

$$$$
>  <residue_codes>
MTIEDLQAFMKREFPQLGEAFEIVTVDEGSATMRLHADAQHLRPGGTVSGPSLFALADVAAYAAILAHIGPVALAVTTNLNINFLRKPSPGTVEAVAHLLKLGKRLAVLDISLTDGANGELVAHATATYSIPPRLEHHHHHH

>  <result>
soluble

$$$$
>  <residue_codes>
MVQQKIANLLQGDFRYQIQYNWVSLENISPNIQLAVISSEDQRFLEHLGFDFEAIQRAIRYNEKSNKGIRGASTISQQTAKNLMLWHGQNWLRKGLEVPATMLLELTWSKKRILEVYLNIAEFGNGIFGVEAASRYYFKKSAKNLSQNEAALLAAVLPNPIIYKVNKPSLLVRKKQTWILRQMGNLGTEYLSHL

>  <result>
not soluble

$$$$
>  <residue_codes>
MSLRMKVFEIVKSSTENEIVRIHVELPRLKYLKDSNFEEKFNSEVEEKIKKFVNEVKGIAQEDHDKDVQHTPYEAYVSVDVRYEGKDFLSFVVYYYQFTGGAHGITFFETYNIDLKNSKVLKLYDIIKEEAEDTIKSNILKQIEQNNTDFFPDAPMNILKDDIFSREFTISKDGLIIMYPHYDLAPYASGMPEFVIPWNVIEKFLKYDILSLLKEGHHHHHH

>  <result>
soluble

$$$$
